# Species: Oryctolagus cuniculus
# Assay Name: Binding affinity to rabbit bone assessed as drug level bound to bone powder at 0.25 to 4 ug/ml after 24 hrs
# Type: tissue-based
# Run Conditions: Bone element
Readout: Activity (%)
State just the number; it will be interpreted in %.

INSERT INTO assay_data (smiles_representation, readout, result_value) VALUES
  ('CC(C)C[C@H](C(=O)N[C@H]1C(=O)N[C@@H](CC(N)=O)C(=O)N[C@H]2C(=O)N[C@H]3C(=O)N[C@H](C(=O)N[C@H](C(=O)O)c4cc(O)cc(O)c4-c4cc3ccc4O)[C@H](O[C@H]3C[C@](C)(N)[C@@H](O)[C@H](C)O3)c3cc(Cl)c(c(Cl)c3)Oc3cc2cc(c3O[C@H]2O[C@@H](CO)[C@@H](O)[C@H](O)[C@H]2O[C@@H]2C[C@@](C)(NCc3ccc(-c4ccc(Cl)cc4)cc3)[C@@H](O)[C@@H](C)O2)Oc2ccc(cc2Cl)[C@H]1O)N(C)C(=O)CCC(P(=O)(O)O)P(=O)(O)O', 'Activity', 99.8);

Here is the next item to consider.
Reported Activity of CN[C@H](CC(C)C)C(=O)N[C@H]1C(=O)N[C@@H](CC(N)=O)C(=O)N[C@H]2C(=O)N[C@H]3C(=O)N[C@H](C(=O)N[C@H](C(=O)OCC(=O)NC(P(=O)(O)O)P(=O)(O)O)c4cc(O)cc(O)c4-c4cc3ccc4O)[C@H](O[C@H]3C[C@](C)(N)[C@@H](O)[C@H](C)O3)c3cc(Cl)c(c(Cl)c3)Oc3cc2cc(c3O[C@H]2O[C@@H](CO)[C@@H](O)[C@H](O)[C@H]2O[C@@H]2C[C@@](C)(NCc3ccc(-c4ccc(Cl)cc4)cc3)[C@@H](O)[C@@H](C)O2)Oc2ccc(cc2Cl)[C@H]1O : 97.6
